Test system: NCI-H23 lung
Test: NCI-60 one-dose screen, 48 h
Settings: 10 µM unless noted
About 83,000 compounds went through this panel and 20% of them were active in at least one assay; those are over-represented in the sample as a whole. Activity calls are given as the source filed them. How the source made its calls: active means growth percent below 10; inactive means the rest.
Please answer using one outcome listed in active, inactive

The following compounds have reported results that may help.
C=CCN1C(=O)[C@]2(SC1=S)[C@H](c1cccc(Cl)c1)CN(C)[C@]21C(=O)NC2C=CC(Cl)=C[C@H]21 (stereo not given in full)
inactive
CC(C)OC(=O)NNC(=O)c1ccncc1
inactive
Cc1[nH]c(-c2nc3ccccc3[nH]2)c(C)c1C(=O)N1CCc2sccc2C1
inactive

Status in this test for `COc1cc(/C=C/C(=O)c2ccc(Nc3nc(Nc4ccccc4)nc(Nc4ccc(Cl)cc4)n3)cc2)cc(OC)c1OC` ?
inactive

Status in this test for `CCn1c(Sc2nnc(Nc3ccccc3)s2)nc2c1c(=O)n(C)c(=O)n2C` ?
inactive

Status in this test for CC(C)(C)OC(=O)N1Cc2cc3ccccc3nc2C1CO (stereo not given) ?
inactive

Status in this test for `CCCCn1c(=O)[nH]c(N)c(C(c2ccc(F)cc2)c2c(N)[nH]c(=O)n(CCCC)c2=O)c1=O` ?
inactive

Status in this test for `Cc1cc(=O)[nH]c(N/N=C/c2cc(Br)ccc2O)n1` ?
inactive

Status in this test for `Cc1cc(N(CCCNc2ccnc3cc(Cl)ccc23)Cc2ccccn2)nc(N2CCCC2)n1` ?
inactive

Status in this test for `CCOC(=O)c1c(C)[nH]c(C(=O)CCC(=O)OC)c1C` ?
inactive

Status in this test for `O=C1c2ccccc2C(=O)c2cc(Cn3cc[n+](Cc4ccc5ccccc5c4)c3)ccc21` ?
inactive

Status in this test for `COc1ccc(-c2cn(-c3cccc(C(=O)/C=C/c4cc(OC)c(OC)c(OC)c4)c3)c(=O)[nH]2)cc1` ?
active

Status in this test for `COc1ccc(-c2nnc(-c3ccc4c(c3)nc(-c3ccccc3)n4C3CCCCC3)o2)cc1` ?
inactive

###

System: NCI-H23 lung
Assay: NCI-60 one-dose screen, 48 h
Conditions: 10 µM unless noted
Protocol: Growth inhibition of the NCI-H23 human Non-Small Cell Lung tumor cell line is measured as a screen for anti-cancer activity. Cells are grown in 96 well plates and exposed to the test compound for 48 hours. Compounds are tested at a single concentration, which is 10^-5 M for most compounds. The reported endpoint is percent growth (GI% or GIPRCNT), where numbers from 0 - 100% represent growth inhibition, and numbers from -100% - 0 represent cell death. […]
About 83,000 compounds went through this panel and 20% of them were active in at least one assay; those are over-represented in the sample as a whole. Activity calls are given as the source filed them. The calls were made as follows: active = growth percent below 10; inactive = the rest.
Please answer using one outcome listed in active, inactive

The following compounds have reported results that may help.
N#Cc1c(N)nc2c(nnn2-c2cccc(C(F)(F)F)c2)c1N
inactive
Cn1cc(-c2ccc3ncc(-c4ccc(CC(=O)Nc5cc(C(C)(C)C)nn5C)cc4)cc3c2)cn1
active
C=CC(=O)Nc1cccc(C)c1Nc1cc(-c2cccnc2Cc2c(C)c(OC)cc(OC)c2C)ncn1
inactive
C=C(C)[C@@H]1CC[C@]2(CO)CC[C@]3(C)[C@H](CC[C@@H]4[C@@]5(C)C=C(C#N)C(=O)C(C)(C)[C@@H]5CC[C@]43C)[C@@H]12
inactive
CC(C)(C)Nc1c(-c2c3ccccc3cc3ccccc23)nc2ccccn12
inactive

Status in this test for CCN(CC)CC(O)CNc1c2ccc(Cl)cc2nc2ccc(OC)cc12 (stereo not drawn) ?
active

Status in this test for `COc1cccc(-c2nc3sccn3c2-c2ccnc(NCCNS(=O)(=O)c3c(Cl)cccc3Cl)c2)c1` ?
inactive

Status in this test for `Cn1cc(-c2ccc3nc(-c4ccc(CC(=O)Nc5cc(C(C)(C)C)no5)cc4)cnc3c2)cn1` ?
inactive

Status in this test for `Cc1cccc(-c2cc(O)c(C(=O)N3CCOCC3)s2)c1` ?
inactive

Status in this test for `CN(C)CCn1cc(-c2ccc3c(Nc4ccc(CC(=O)Nc5cccc(F)c5)cc4)ncnc3c2)cn1` ?
active

Status in this test for `CS(=O)(=O)c1ccc(N/N=C/c2c(-c3ccc(S(C)(=O)=O)cc3)[nH]c3ccc(F)cc23)cc1` ?
inactive

Status in this test for `Cc1ccc(S(=O)(=O)NN/C(N)=N\S(=O)(=O)c2cc(C)c(Cl)cc2SCc2ccccc2)cc1` ?
inactive

Status in this test for COc1ccc(C(=O)/C=C/C23c4ccccc4C(c4ccccc42)C2C(=O)NC(=O)C23)cc1 (stereo not drawn) ?
inactive

Status in this test for CC(C)OC(=O)OCOP(=O)(OCOC(=O)OC(C)C)C1CCCN(O)C1=O (stereo not drawn) ?
inactive

Status in this test for `CN1CCN(C(=O)[C@]23CCC(C)(C)C[C@@H]2C2=CC[C@@H]4[C@@]5(C)Cc6c([nH]c7ccccc67)C(C)(C)[C@@H]5CC[C@@]4(C)[C@]2(C)CC3)CC1` ?
inactive

Status in this test for `CCOC(=O)c1sc2ccc(NCc3nc[nH]c3C)cc2c1NC(=O)c1cc(OC)c(OC)c(OC)c1` ?
inactive

Status in this test for `COc1ccc(/C=C2\COc3ccc(O)c(O)c3C2=O)c(OC)c1` ?
inactive

Status in this test for OC(c1cccc(OCc2ccccc2)c1)c1nnc(-c2ccccc2)o1 (stereo not drawn) ?
inactive

###

Listed below: growth values for each entry.
Tested on: OVCAR-4 ovarian
Assay: NCI-60 one-dose screen, 48 h (100 = growth as untreated, 0 = no growth, -100 = all killed)
Conditions: 10 µM unless noted
This is part of a sample that, as a whole, favours compounds with a hit. Of some 83,000 tested, about 20% had one in any assay. Calls of active or inactive are those of the source. The calls were made as follows: active = growth percent below 10; inactive = the rest.

Take a look at these entries with their results.
c1ccc2[nH]c(SSc3nc4ncncc4[nH]3)nc2c1
33.9% (inactive)
COc1cc(C2CC(c3ccc(Nc4nc(Nc5ccc(F)cc5)nc(Nc5ccc(Cl)cc5)n4)cc3)=NN2C(C)=O)cc(OC)c1OC (centres undefined)
77.6% (inactive)
C[N+](C)(C)CCOC(OCC[N+](C)(C)C)(c1ccccc1)c1ccccc1
107% (inactive)
O=C1CC(c2ccc3c(c2)OCO3)Nc2cc3c(cc21)OCO3 (centres undefined)
49.9% (inactive)
Cc1nc(Nc2ccc(NC(=S)Nc3ccccc3)cc2)nc2nc(Nc3cccc(Cl)c3)[nH]c(=O)c12
102% (inactive)
O=C(CCl)N1c2cccc3cccc(c23)N(C(=O)CCl)C1c1cn(-c2ccccc2)nc1-c1cccc([N+](=O)[O-])c1
96% (inactive)
Nc1ccn(C2OC(F)(CO)C(O)C2F)c(=O)n1 (centres undefined)
73.2% (inactive)
COc1ccc(CN2C(=O)/C(=C\c3cc(OC)c(OC)c(OC)c3)c3ccccc32)cc1
23.3% (inactive)
Cc1cc2c(F)c(Oc3ncnc(Nc4ccc(N5C[C@@H](C)N[C@@H](C)C5)cc4)c3C#N)cc(F)c2[nH]1
16.2% (inactive)
Cc1ccc(S(=O)(=O)N(CC[C@@H]2C[C@H]2c2cc3ccccc3o2)C(=O)NC2CCCCC2)cc1
93% (inactive)

Fill in growth for record `CC(=O)Nc1ccc2c(c1)Cc1c(F)cccc1-2`
106% (inactive)

Fill in growth for record `C=C1C(=O)O[C@H]2[C@H]1CC/C(COC(=O)/C=C\C(=O)NCc1ccc(Cn3c(=O)sn(-c4ccc(Cl)cc4)c3=O)cc1)=C\CC[C@@]1(C)O[C@@H]21`
-78.4% (active)

###

Listed below: growth values for each entry.
Test system: NCI-H460 lung
Assay: NCI-60 one-dose screen, 48 h (100 = growth as untreated, 0 = no growth, -100 = all killed)
Settings: 10 µM unless noted
This is part of a sample that, as a whole, favours compounds with a hit. Of some 83,000 tested, about 20% had one in any assay.
Field: numeric (%). Do not append units.

Take a look at these entries with their results.
CCCCCCCCn1cc(C2=C(c3coc4ccc(OC)cc34)C(=O)NC2=O)c2ccccc21
101
COC1=CC(c2ccc[nH]2)=N/C1=C\c1[nH]c(C)c(C(=O)OCCn2cc(CCC[C@@H]3Cc4cc(O)ccc4C4CC[C@]5(C)[C@@H](O)CC[C@H]5C43)nn2)c1C (stereo partly drawn)
53.3
NC(=S)N/N=C/C(=O)O
99.6
C=C(C)[C@@H]1CC[C@]2(C(=O)NCC(=O)O)CC[C@]3(C)[C@H](CC[C@@H]4[C@@]5(C)Cc6c([nH]c7ccccc67)C(C)(C)[C@@H]5CC[C@]43C)[C@@H]12
88.5
COc1cc(-c2cc(-c3ccc(Nc4nc(Nc5ccccc5)nc(Nc5ccc(Cl)cc5)n4)cc3)nc(N)n2)cc(OC)c1OC
65.8

Fill in growth for record CC1=NN(c2cccc(Cl)c2)C(=O)/C1=C\c1cn(CC(O)CN2CCCCC2)c2ccccc12 (stereo not drawn)
44.8

Fill in growth for record `C=C1C(=O)O[C@H]2[C@H]1CC/C(Cn1cc(CNCCc3c[nH]c4ccccc34)nn1)=C\CC[C@@]1(C)O[C@@H]21`
104

Fill in growth for record `O=C(NCCN1CCC(O)CC1)c1cc2c(o1)C(=O)c1ccccc1C2=O`
-75.9

Cited source: PubChem BioAssay (NCI)
